The origin of these recorded values is the supplement of paper PMC7214452.

System: HuT 78 (cancer type: TCL)
Experiment: normalized area under the dose-response curve (viability relative to DMSO control) (fraction); higher = less sensitive (more viable cells)
Conditions: exposure time not given
Measurement kind: normalized area under the dose-response curve
// return a plain number; no unit text

CC(C)C[C@H](NC(=O)CNC(=O)c1cc(Cl)ccc1Cl)B(O)O = 0.156

Output normalized area under the dose-response curve of `O=C(c1ccc(OCCN2CCCCC2)cc1)c1c(-c2ccc(O)cc2)sc2cc(O)ccc12`
0.786

Output normalized area under the dose-response curve of `CC(C)(C)c1cc(NC(=O)Nc2ccc(-c3cn4c(n3)sc3cc(OCCN5CCOCC5)ccc34)cc2)no1`
0.865

Output normalized area under the dose-response curve of O=P1(N(CCCl)CCCl)NCCCO1 (configuration not stated) [Cyclophosphamide]
0.928

Output normalized area under the dose-response curve of `CNC(=O)c1cc(Oc2ccc(NC(=O)Nc3ccc(Cl)c(C(F)(F)F)c3)c(F)c2)ccn1`
0.697

Output normalized area under the dose-response curve of `CC(=O)O[C@H]1C(=O)[C@@]2(C)[C@H]([C@H](OC(=O)c3ccccc3)[C@]3(O)C[C@H](OC(=O)[C@H](O)[C@@H](NC(=O)c4ccccc4)c4ccccc4)C(C)=C1C3(C)C)[C@]1(OC(C)=O)CO[C@@H]1C[C@@H]2O`
0.329

Output normalized area under the dose-response curve of `O=C(c1ccc(F)c(F)c1Nc1ccc(I)cc1F)N1CC(O)([C@@H]2CCCCN2)C1`
0.807

---

Test system: KMS12PE (cancer type: MM)
Assay: normalized area under the dose-response curve (viability relative to DMSO control) (fraction); higher = less sensitive (more viable cells)
Conditions: exposure time not given
Counter-ions that a name gives are not always drawn.
Listed next: entries and their corresponding normalized area under the dose-response curve.
// return a plain number; no unit text

C[C@@H]1C[C@H]2[C@@H]3CCC4=CC(=O)C=C[C@]4(C)[C@@]3(F)[C@@H](O)C[C@]2(C)[C@@]1(O)C(=O)CO = 0.96

Output normalized area under the dose-response curve of `C[C@@H](Oc1cc(-c2cnn(C3CCNCC3)c2)cnc1N)c1c(Cl)ccc(F)c1Cl`
0.54

Output normalized area under the dose-response curve of CC(C)(C)c1nc(-c2cccc(NS(=O)(=O)c3c(F)cccc3F)c2F)c(-c2ccnc(N)n2)s1 [Dabrafenib mesylate]
0.75

Output normalized area under the dose-response curve of O=C1CC[C@H](N2Cc3c(OCc4ccc(CN5CCOCC5)cc4)cccc3C2=O)C(=O)N1 [Iberdomide]
0.93

---

Tested on: JeKo-1 (cancer type: Mantle)
Assay: normalized area under the dose-response curve (viability relative to DMSO control) (fraction); higher = less sensitive (more viable cells)
Conditions: exposure time not given
Kind request: treat 0.8 as inclusive, so normalized area under the dose-response curve at 0.8 or higher is true (1), anything lower is false (0).

Cc1noc2c1-c1ccccc1C(c1ccc(Cl)cc1)=N[C@H]2CC(N)=O = true (1)
C[C@@H](Oc1cc(-c2cnn(C3CCNCC3)c2)cnc1N)c1c(Cl)ccc(F)c1Cl = false (0)
COc1cc(Nc2c(C#N)cnc3cc(OCCCN4CCN(C)CC4)c(OC)cc23)c(Cl)cc1Cl = true (1)
CC(=O)O[C@H]1C(=O)[C@@]2(C)[C@H]([C@H](OC(=O)c3ccccc3)[C@]3(O)C[C@H](OC(=O)[C@H](O)[C@@H](NC(=O)c4ccccc4)c4ccccc4)C(C)=C1C3(C)C)[C@]1(OC(C)=O)CO[C@@H]1C[C@@H]2O = false (0)
CC(C)C[C@H](NC(=O)[C@H](CCc1ccccc1)NC(=O)CN1CCOCC1)C(=O)N[C@@H](Cc1ccccc1)C(=O)N[C@@H](CC(C)C)C(=O)[C@@]1(C)CO1 = false (0)

Textbook exercise: given the entry `Cc1ccc(F)c(NC(=O)Nc2ccc(-c3cccc4[nH]nc(N)c34)cc2)c1` , state whether its normalized area under the dose-response curve is greater than or equal to 0.8.
false (0)

---

Tested on: JVM2 (cancer type: Mantle)
Assay: normalized area under the dose-response curve (viability relative to DMSO control) (fraction); higher = less sensitive (more viable cells)
Settings: exposure time not given
Listed next: entries and their corresponding normalized area under the dose-response curve.
// return a plain number; no unit text

Output normalized area under the dose-response curve of `CC1(C)CCC(CN2CCN(c3ccc(C(=O)NS(=O)(=O)c4ccc(NCC5CCOCC5)c([N+](=O)[O-])c4)c(Oc4cnc5[nH]ccc5c4)c3)CC2)=C(c2ccc(Cl)cc2)C1`
0.73

---

Test system: JJN3 (cancer type: MM)
Test: normalized area under the dose-response curve (viability relative to DMSO control) (fraction); higher = less sensitive (more viable cells)
Conditions: exposure time not given
Where a name gives a salt, the structure may show the parent alone.
Measurement kind: normalized area under the dose-response curve
// return a plain number; no unit text

Check out these entries, answers already filled in.
CO[C@H]1C[C@@H]2CC[C@@H](C)[C@@](O)(O2)C(=O)C(=O)N2CCCC[C@H]2C(=O)O[C@H]([C@H](C)C[C@@H]2CC[C@@H](OC(=O)C(C)(CO)CO)[C@H](OC)C2)CC(=O)[C@H](C)/C=C(\C)[C@@H](O)[C@@H](OC)C(=O)[C@H](C)C[C@H](C)/C=C/C=C/C=C/1C [Temsirolimus] = 0.774
Cn1c(CCCC(=O)O)nc2cc(N(CCCl)CCCl)ccc21 [Bendamustine hydrochloride] = 0.938

Next compound, please.
Output normalized area under the dose-response curve of C[C@@H]1C[C@H]2[C@@H]3CCC4=CC(=O)C=C[C@]4(C)[C@@]3(F)[C@@H](O)C[C@]2(C)[C@@]1(O)C(=O)CO [Dexamethasone]
0.983

---

System: SU-DHL1 (cancer type: TCL)
Assay: normalized area under the dose-response curve (viability relative to DMSO control) (fraction); higher = less sensitive (more viable cells)
Conditions: exposure time not given
Structures can show the parent of a compound that is named as a salt.
Kind request: treat 0.8 as inclusive, so normalized area under the dose-response curve at 0.8 or higher is criterion met, anything lower is criterion not met.

Textbook exercise: given the entry `Cc1ccc(C(=O)Nc2ccc(CN3CCN(C)CC3)c(C(F)(F)F)c2)cc1C#Cc1cnc2cccnn12` , state whether its normalized area under the dose-response curve is greater than or equal to 0.8.
criterion not met

Textbook exercise: given the entry CC(C)(C)c1nc(-c2cccc(NS(=O)(=O)c3c(F)cccc3F)c2F)c(-c2ccnc(N)n2)s1 [Dabrafenib mesylate] , state whether its normalized area under the dose-response curve is greater than or equal to 0.8.
criterion met

Textbook exercise: given the entry `CCCS(=O)(=O)Nc1ccc(F)c(C(=O)c2c[nH]c3ncc(-c4ccc(Cl)cc4)cc23)c1F` , state whether its normalized area under the dose-response curve is greater than or equal to 0.8.
criterion met

Textbook exercise: given the entry `CCc1cnn2c(NCc3ccc[n+]([O-])c3)cc(N3CCCC[C@H]3CCO)nc12` , state whether its normalized area under the dose-response curve is greater than or equal to 0.8.
criterion not met

Textbook exercise: given the entry `CC(C)(O)CNc1nc(Nc2ccnc(C(F)(F)F)c2)nc(-c2cccc(C(F)(F)F)n2)n1` , state whether its normalized area under the dose-response curve is greater than or equal to 0.8.
criterion met

Textbook exercise: given the entry `Cc1ccc(-n2nc(C(C)(C)C)cc2NC(=O)Nc2ccc(OCCN3CCOCC3)c3ccccc23)cc1` , state whether its normalized area under the dose-response curve is greater than or equal to 0.8.
criterion not met

---

Listed next: entries and their corresponding normalized area under the dose-response curve.
System: MM1.S (cancer type: MM)
Test: normalized area under the dose-response curve (viability relative to DMSO control) (fraction); higher = less sensitive (more viable cells)
Conditions: exposure time not given
Structures can show the parent of a compound that is named as a salt.
// return a plain number; no unit text

Check out these entries, answers already filled in.
C#Cc1cccc(Nc2ncnc3cc(OCCOC)c(OCCOC)cc23)c1 [Erlotinib hydrochloride] = 0.86
CO[C@H]1C[C@@H]2CC[C@@H](C)[C@@](O)(O2)C(=O)C(=O)N2CCCC[C@H]2C(=O)O[C@H]([C@H](C)C[C@@H]2CC[C@@H](OCCO)[C@H](OC)C2)CC(=O)[C@H](C)/C=C(\C)[C@@H](O)[C@@H](OC)C(=O)[C@H](C)C[C@H](C)/C=C/C=C/C=C/1C [Everolimus] = 0.63

Next molecule, please.
Output normalized area under the dose-response curve of Cc1cn(-c2cc(NC(=O)c3ccc(C)c(Nc4nccc(-c5cccnc5)n4)c3)cc(C(F)(F)F)c2)cn1 [Nilotinib]
0.78

---

System: OCI-LY3 (cancer type: DLBCL)
Assay: normalized area under the dose-response curve (viability relative to DMSO control) (fraction); higher = less sensitive (more viable cells)
Details: exposure time not given
# class assignment by measured normalized area under the dose-response curve: bottom bin = under 0.3, middle bin = from 0.3 up to 0.9, top bin = 0.9 and over

Take a look at these entries with their results.
O=C(CCCCCCC(=O)Nc1ccccc1)NO [Vorinostat] = middle bin
O=C(/C=C/c1cccc(S(=O)(=O)Nc2ccccc2)c1)NO [Belinostat] = middle bin
Nc1cccc2c1C(=O)N(C1CCC(=O)NC1=O)C2=O (stereo unspecified) [Pomalidomide] = top bin

Tag the class for C[C@@H]1CCN(C(=O)CC#N)C[C@@H]1N(C)c1ncnc2[nH]ccc12 [Tofacitinib]
top bin

Tag the class for CC1(C)CCC(CN2CCN(c3ccc(C(=O)NS(=O)(=O)c4ccc(NCC5CCOCC5)c([N+](=O)[O-])c4)c(Oc4cnc5[nH]ccc5c4)c3)CC2)=C(c2ccc(Cl)cc2)C1 [Venetoclax]
bottom bin

Tag the class for CS(=O)(=O)c1ccc(C(=O)Nc2ccc(Cl)c(-c3ccccn3)c2)c(Cl)c1 [Vismodegib]
top bin

Tag the class for Nc1nc(Cl)nc2c1ncn2[C@H]1C[C@H](O)[C@@H](CO)O1 [Cladribine]
middle bin
